- test.method.notes: yeast display, Sf9 membrane polyspecificity reagent, FACS + sequencing; frameworks hold sequencing errors

{"query.sequence": "QVQLVESGGGLVQAGGSLRLSCAASGITFDINAMGWYRQAPGKERELVAAISKSGRTYYADSVKGRFTISRDNAKNTVYLQMNSLKPEDTAVYYCNKVPYPSNDYWGQGTQVTVSS", "polyreactivity (PSR sort gate)": "high polyreactivity"}
{"query.sequence": "QVQLVESGGGLVQAGGSLRLRCAATGRTFGWYAMGWYRQAPGKEREFVATITRSGGRTYYADSVKGRFTISRDNAKNTVYFQMNSLKPEDTAVYYCAADTNRYRYSYDYWGQGTQVTVSS", "polyreactivity (PSR sort gate)": "high polyreactivity"}

----------
- test.method.notes: yeast display, Sf9 membrane polyspecificity reagent, FACS + sequencing; frameworks hold sequencing errors
property.name: polyreactivity (PSR sort gate)

Consider the reported polyreactivity (PSR sort gate) for these sequences:
{"query.sequence": "QFQLVESGGGLVQAGGSLRLSCAASGFTFAYYAMGWYRQAPGKERELVAAITYSGGSTYYADSVKGRFTISRDNAKNTVYLQMNSLKPEDTAVYDCAAYPSRRRRGDEDDYWGQGTQVTVSS", "polyreactivity (PSR sort gate)": "high polyreactivity"}
{"query.sequence": "QVQLVESGGGLVQAGGSLRLSCAASGRIFGRNTMGWYRKAPGKERELVASIRSGGRTYYADSVKGRFTISRDNAKNTVYLEMNSLKPEDTAVYYCAADNRKSSSSGYDYWGQGTQVTVSS", "polyreactivity (PSR sort gate)": "low polyreactivity"}
{"query.sequence": "QVQLVESGGGLVQAGGSLRLSCAASGSIVRYYAMGWYRQAHGKEREFVAAISWSGGSTYYADSVKGRFTISRDNAKKTVYLQRNSLKPEDTAVFFCATTPGVWSTGGTNGFGYWGQGTQVTVSS", "polyreactivity (PSR sort gate)": "high polyreactivity"}
{"query.sequence": "QVQLVESGGGLVQAGGSLRLSCAASGRIFNRYTMGWYRQAPGKERELGAAISKSGGSTYYADSVKGRFTISRDNAKNTVYVQMNSLKPEDTAVYDCAAPPRLYRWHGGDYWGQGTQVTVSS", "polyreactivity (PSR sort gate)": "high polyreactivity"}
{"query.sequence": "QVQLVESGGGLVQAGGSLRRTCAASGSIFVGYAMGWYRQEPGKERELVASITNGDSTNYADSVKGRFTISRDNAKNTVSYQMNSLKPEDTAVYYCAADYYSVHPSGWYGYEYWGQGTQVTVSS", "polyreactivity (PSR sort gate)": "low polyreactivity"}

## Task Could you please provide reported polyreactivity (PSR sort gate) for QVQLVESGGGLVQAGGSLRVSCAASGSTFVRNAMGGYRQAPGKETELVAFISTSGTRTHYADSVKGRFTISRDNAKNTVYFQMNSLKPEDTAVYYCNRRVYGIVTRDYWGQGTQVTVSS ? Thanks!
## Result high polyreactivity

## Task Could you please provide reported polyreactivity (PSR sort gate) for QVQLVESGGGLVQAGGSLRLSCAASGNIFVFYVMGWYRQAPGKERELVASISSTGNTYYADSVKGRFTISRENAMNTVYLQLNRLKPEDTAVYYCAADSHQNVSGWLRWPRMDYWGQGTQVTVSA ? Thanks!
## Result low polyreactivity

## Task Could you please provide reported polyreactivity (PSR sort gate) for QVQLVESGGGLVQAGGSLRLSCAASGRTSDGYAMGWYRQAPGKERELVAGITEGGGDTYYADSVKGRFTISRDNAKNTVYLQMNSLKPEDSAVYYCNAVEGSRLPYDYWGQGTQVTVSS ? Thanks!
## Result low polyreactivity

## Task Could you please provide reported polyreactivity (PSR sort gate) for QFQLLESGGGVVHAAGSLRLSCAASGLIFPIYAMGWYRQAPGKERELVAVISSSGGSTNYADSVKGRFTISRDNAKNTVYLQMNSLKPEDTAVYYCAARYLQGRYDYWGQGTQVTVSS ? Thanks!
## Result high polyreactivity

## Task Could you please provide reported polyreactivity (PSR sort gate) for QVQLVESGGGLVQAGGSLRLSCAASGRTSVRYAMGWYRQAPGKERELVAAISWSGGSTYYADSVKGRFTISRDNAKNTVYLQMNSLKPEDTAVYYCNAQHARGYYYWGQGTQVTVSS ? Thanks!
## Result low polyreactivity

## Task Could you please provide reported polyreactivity (PSR sort gate) for QVQLVESGGGLVQAGGSLRLSCAASGSTFYWYAMGWYRQAPGKEREFVAAISLGSGSTYYADSVKGRFTISRDNAKNTVYLQMNSLKPEDTAVYYCATVPWYIKVGQKRNDYWGQGTQVTVSS ? Thanks!
## Result high polyreactivity

----------
- test.method.notes: yeast display, Sf9 membrane polyspecificity reagent, FACS + sequencing; frameworks hold sequencing errors
property.name: polyreactivity (PSR sort gate)

Consider the reported polyreactivity (PSR sort gate) for these sequences:
{"query.sequence": "QVQLVESGGGLVQAGGSLRLSCAASGSIFGRYTMGWYRQAPGKERELVAAISSSGGRTYYADSVKGRFTISRDNAKNTVFLQMNSLKPEDTAVYYCNNGYGYEYYWGQGTQVTVSS", "polyreactivity (PSR sort gate)": "low polyreactivity"}
{"query.sequence": "QVQLVESGGGLVQAGGSLRLSCAASGFIFVTYAMGWYRQAPGKETELVAAINNSGGTTYYADSVKGRFTISRDNAKNTVYLQMNSLKPEDTAVYFCNKRYGAETAHREFDYWGQGTQVTVSS", "polyreactivity (PSR sort gate)": "low polyreactivity"}
{"query.sequence": "QVQLVESGGGLVQAGGSLRLSCAASGRIFQAYAMGWYRQAPGKERELVASISYRGGITYYADSVKGRFTISRDNAKNTVYLQMNSLKPEDTAVYYCAAGRKGSMYYWGQGTQVTVSS", "polyreactivity (PSR sort gate)": "high polyreactivity"}
{"query.sequence": "QVQLVESGGGLVQAGGSLRLSCAASGSTFYTNAMGLYRQAPGKERELVAAISWSAGSTYYADSVKGRFTISRDNAKNTVYLQMNSLKPEDTAVYYCAAYYWYKWGYKYGYWGQGTQVTVSS", "polyreactivity (PSR sort gate)": "high polyreactivity"}
{"query.sequence": "QVQLVESGGGLVQAGGSLRLSCAASGSIFAGYAMGWYRQAPGNERELVAAISNRGSSTNYADSVKGRFTISRDNAKITVYLQMNSLKPEDTAVYYCAVGPIRKYDYWGQGTQVTVSS", "polyreactivity (PSR sort gate)": "high polyreactivity"}
{"query.sequence": "QVQLVETGGGLVQAGGSLRISCAASGFTISFYAMAWYRHAPGKERELVAAISSGGRTSYADSVKGRFTISRDNAKNTVYLQMNSLTPEATAVYYCAATNRWYYRAAAAVYAFGYWGHGTQVTVSS", "polyreactivity (PSR sort gate)": "high polyreactivity"}
{"query.sequence": "QVQLVESGGGLVQAGGSLRLSSAASGRTFYRHAMGWYRQAPGKERELVAASTRSGSTNYADSVKGRFTISRDNAKNTVYLQMNSLKPEDTADYYCAAKFFRNTYSYGMDYWGQGTQVTVSS", "polyreactivity (PSR sort gate)": "high polyreactivity"}
{"query.sequence": "QVQLVESGGGLVQAGGSLRLSCAASGSTFGLYAMGWYRQAPGKEREFVAAISWRTGSTYYADSVKGRFTISRDNAKNTVFLQMYSLKPEDTAVYYCAARAYGTIIHGYWGQGTHVTVSS", "polyreactivity (PSR sort gate)": "high polyreactivity"}

## Task Could you please provide reported polyreactivity (PSR sort gate) for QVQLVESGGGLVQAGGSLRLSCAASGPIFHPYAMGWYRHAPGKERELVAAITNSGGITYADSVKGRFTISRDNAKNTVYLQMNSLKPEDTAVYYCNTATNRFHYKYRKPYDYWGQGTQVTVSS ? Thanks!
## Result low polyreactivity

## Task Could you please provide reported polyreactivity (PSR sort gate) for QVQLVESGGGLVQAGGSLRLSCAASGIIFTDNAMGWSRQAPGKERELVAAISCRGGSTYYADSVKGRFTISRDNAKNTVYLQMNSLKPEDTAVYYCARYGTDHRLGYGYWGQGTQVTVSS ? Thanks!
## Result low polyreactivity

## Task Could you please provide reported polyreactivity (PSR sort gate) for QVQLVESGGGLVQAGGSLRLSCAASGFIFTRYAMGWYRQAPGKEREFVARIDSSGGSTYYADSVKGRFTISRDNAKNTVYLQMNSLKPEDTAVYYCAAVGYRFGSYYWGQGTKVTVSS ? Thanks!
## Result high polyreactivity

----------
- test.method.notes: yeast display, Sf9 membrane polyspecificity reagent, FACS + sequencing; frameworks hold sequencing errors
property.name: polyreactivity (PSR sort gate)

Consider the reported polyreactivity (PSR sort gate) for these sequences:
{"query.sequence": "QVQLVESGRGLVQAGGSLRLSCAASGLTFVYYDMGWYRQAPGKERELVAAITYIGTSTYYADSVKGRFTISRDNAKNTVYLQMNSLKPEDTAVYYCAAPFPIRSGESWRTDLGYDYWGQGTQVTVSS", "polyreactivity (PSR sort gate)": "low polyreactivity"}
{"query.sequence": "QVQHVESGGGLVQAGGSLRLSCAASGRTFGRNAMGWYRQAPGKESEFVASINQRGGCTYYADSVKGRFTISRDIAKNTVYLQMNSLKPEDTAVYYCAKYVYVGYVRQVPYFRYDYWGQGTQVTVSS", "polyreactivity (PSR sort gate)": "high polyreactivity"}
{"query.sequence": "QVQLVESGGGLVQAGGSLRLSCAASGIIFTSYAMGWYRQAPGKEREFVAGISVRGSSTYYADSVKGRFTISRDNAKNTVYLQMNSLKAEDTAVYYCAARTPSRYLYYEYDYWGQGTQVTVSS", "polyreactivity (PSR sort gate)": "low polyreactivity"}
{"query.sequence": "QVQLVESGGGLVQAGGSLRLSCAASGRIFGDNTMGWYRQAPGKERELVAAISFTGGSTYYADSVKGRFSISRDNAKNTVYLQMNSLKPEDTAVYYCNADWVSTWGYDYWGQGTQVTVSS", "polyreactivity (PSR sort gate)": "low polyreactivity"}
{"query.sequence": "QVQLEESGGSLVQAGGSLRLSCAASGRTFTVNDMGWYRQAPGKERELVADIRGSGVSTSYADSVKGRFTISRDNAKNTVYLQMNSLKPADTAVYYCATDPVKSGYQRYYYWGQGTHVTVSS", "polyreactivity (PSR sort gate)": "low polyreactivity"}
{"query.sequence": "QGQLVESGGGLVQAGGSLRLSCAASGSIFGQYVMGWYRQAPGKERELVAAISGTGGSTYYADSVKGRFTISRDNAKNTVYLQMNSLKPEDTAVYYCAVVHRSSYRESGLLWRYYWGQGTQVTVSS", "polyreactivity (PSR sort gate)": "high polyreactivity"}
{"query.sequence": "QVQLVESGGGLVQAGGSLRLSCAASVSIFSSYAMGWYRQAPGKERELVAAISSSGDSTDADSVKGRFTISRDNAKNTVYLQMNSLKPEDTAVYYCAVGGAGSDDYWGHGTQVTVSS", "polyreactivity (PSR sort gate)": "low polyreactivity"}
{"query.sequence": "QVQHVESGGGLVQAGGSLRLSCAASGFTYVVYDMGWYRPAPGKERELVAVITNSGGSTYYADSEKGRFTISRDNAKNTVYLQMNSLKPEDTAVYYCNTENFYGSDIFDSWGQGTQVTVSS", "polyreactivity (PSR sort gate)": "low polyreactivity"}

## Task Could you please provide reported polyreactivity (PSR sort gate) for QVQLVESGGGLVQAGGSLRLSCAASGSIIRYNAMGWYRQAPGKERELVAAITKGAGSTYYADSVKGRFTISRDNAKNTVYLQMNSLKPEDTAVYYWNKARGSGHTYYSWGLGTQVTVSS ? Thanks!
## Result high polyreactivity

## Task Could you please provide reported polyreactivity (PSR sort gate) for QVQLVESGGGLVQAGGSLRLSCAASGRTFRYYAMGWYRQAPGKERELVAAIRRGGSTTYADSVKVRFTISRDNAKNTVYLQMNSLKPEDTAVYYCAARYPGTRGDGYWGQGTQVTVSS ? Thanks!
## Result high polyreactivity

## Task Could you please provide reported polyreactivity (PSR sort gate) for QVQLVESGGGLVQAGGSLRLSCAASGFTFYYNAMGWYRQAPGKERELVASISSNGTSTYYADSVKGRFTISRDNAMNTVYLQMNSLKPEDTAVYYCNVDIFDPRTYDYWGQGTQVTVSS ? Thanks!
## Result low polyreactivity
